# study target: human TLR9 (Homo sapiens)
# Sequence (Q9NR96 26-1032): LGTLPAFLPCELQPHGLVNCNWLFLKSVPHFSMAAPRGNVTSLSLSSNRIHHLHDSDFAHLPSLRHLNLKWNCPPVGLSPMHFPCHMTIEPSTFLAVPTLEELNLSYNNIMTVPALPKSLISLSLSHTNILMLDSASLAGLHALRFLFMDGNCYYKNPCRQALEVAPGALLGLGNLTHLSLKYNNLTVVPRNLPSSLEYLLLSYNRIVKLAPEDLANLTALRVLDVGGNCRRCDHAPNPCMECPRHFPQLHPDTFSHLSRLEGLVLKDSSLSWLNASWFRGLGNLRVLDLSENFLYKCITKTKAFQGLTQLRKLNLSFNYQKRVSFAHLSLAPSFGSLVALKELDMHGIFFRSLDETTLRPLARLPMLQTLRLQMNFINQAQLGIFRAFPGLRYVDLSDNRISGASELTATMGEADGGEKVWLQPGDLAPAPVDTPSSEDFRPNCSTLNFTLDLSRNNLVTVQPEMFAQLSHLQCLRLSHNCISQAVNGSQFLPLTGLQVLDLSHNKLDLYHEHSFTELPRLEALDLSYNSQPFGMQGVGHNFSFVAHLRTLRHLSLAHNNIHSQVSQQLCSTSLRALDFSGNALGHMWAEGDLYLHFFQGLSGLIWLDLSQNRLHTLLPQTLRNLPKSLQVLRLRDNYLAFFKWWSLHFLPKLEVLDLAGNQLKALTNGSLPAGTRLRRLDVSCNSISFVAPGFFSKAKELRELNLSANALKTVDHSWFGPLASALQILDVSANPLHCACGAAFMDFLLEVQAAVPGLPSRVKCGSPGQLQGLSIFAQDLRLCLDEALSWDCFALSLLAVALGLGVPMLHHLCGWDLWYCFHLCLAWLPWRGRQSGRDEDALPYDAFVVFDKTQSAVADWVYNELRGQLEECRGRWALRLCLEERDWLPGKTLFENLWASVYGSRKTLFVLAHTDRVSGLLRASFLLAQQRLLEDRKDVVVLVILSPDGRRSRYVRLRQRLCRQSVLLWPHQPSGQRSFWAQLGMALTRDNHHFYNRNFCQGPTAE
# experiment: TLR9 inhibition reporter assay (HEK-Blue cells, SEAP reporter, ODN2006 stimulation)
# reported conditions: HEK-Blue cells overexpressing human TLR9, SEAP reporter, ODN2006 5 nM
# Source text: TLR7/8/9 Inhibition Reporter Assays HEK-Blue™-cells (Invivogen) overexpressing human TLR7, TLR8 or TLR9 receptors were used for screening inhibitors of these receptors using an inducible SEAP (secreted embryonic alkaline phosphatase) reporter gene under the control of the IFN-β minimal promoter fused to five NF-κB and AP-1-binding sites. […]
pIC50: −log10 of the molar value. Counter-ions that a name gives are not always drawn.
Please go through the items and note down their pIC50.

*Q* Answer with the recorded pIC50 for the molecule listed here: Cc1cc(-c2[nH]c3ccc(C4CCN(CC(=O)N(C)C)CC4)cc3c2C(C)C)cc2ocnc12
*A* 4.30 to 6.00

*Q* Give the reported pIC50 for this molecule. CC(C)c1c(-c2ccnc3[nH]ncc23)[nH]c2ccc(C3CCN(CCN)CC3)cc12
*A* 6.00 to 7.00

*Q* Kindly indicate its recorded pIC50. Item: CC(C)c1c(-c2ccnc3[nH]ncc23)[nH]c2ccc(C3CCN(C4C[C@H]5CC[C@@H](C4)N5C)CC3)cc12 (stereo partly shown)
*A* 6.00 to 7.00

*Q* Hello, please tell me recorded pIC50 for this one: CC(C)c1c(-c2ccc3nccn3c2)[nH]c2ccc(C3CCN(C(=O)CN(C)C)CC3)cc12
*A* 4.30 to 6.00

*Q* Read the entry CNCCN1CCC(c2ccc3[nH]c(-c4ccnc5[nH]ncc45)c(C(C)C)c3c2)CC1 [Example 650, dihydrochloride] and write its reported pIC50.
*A* 6.00 to 7.00

*Q* Return the recorded pIC50 value; entry: CCc1c(-c2ccc3[nH]c(=O)oc3c2)[nH]c2ccc(C3CCNCC3)cc12
*A* 6.00 to 7.00

*Q* Specify pIC50 for Cc1c(-c2ccnn3ccnc23)[nH]c2ccc(C3CCN(C4CCN(C(C)C)CC4)CC3)cc12 and stop.
*A* 6.00 to 7.00
